- Tested on: M14 melanoma
- experimental details: NCI-60 one-dose screen, 48 h (100 = growth as untreated, 0 = no growth, -100 = all killed)
- test parameters: 10 µM
The panel holds about 83,000 compounds, 20% with a hit somewhere; the sample as a whole holds those more often.
value kind: growth (%)
Respond numerically; units are % and should not be typed.

Give growth for the following compound: `CC(=O)/C=C/c1ccc(N(CCO)Cc2ccc(C(C)(C)C)cc2)cc1` 69.4

Input `COc1ccc(C(=O)/C=C/c2ccc(OCc3cccc(C(F)(F)F)c3)c(OC)c2)cc1OC` , output reported growth. 85.3

Fill in growth for record `CC(=O)/C=C/c1ccc(N(C)Cc2ccc(C(C)(C)C)cc2)cc1` 79.5

Please indicate growth recorded for `O=C(/C=C/c1cccc(Oc2ccc(Cl)cc2)c1)c1ccccc1` 89.5

Given `CC(=O)/C=C/c1ccc(OCc2ccc(Cl)cc2)cc1` , respond with its growth. 98.2

---

Give measured growth for each item. Keep answers brief.
- Test system: HCT-116 colon
- experimental details: NCI-60 one-dose screen, 48 h (100 = growth as untreated, 0 = no growth, -100 = all killed)
- test parameters: 10 µM unless noted
About 83,000 compounds went through this panel and 20% of them were active in at least one assay; those are over-represented in the sample as a whole. The source made the active and inactive calls. The calls were made as follows: active = growth percent below 10; inactive = the rest.

// fetch growth given entry `CN1Cn2c(ccc2C(F)(F)F)C(=O)CS1(=O)=O` 94.9% (inactive)

Please report the measured growth for `O=C(NCc1cccnc1)/C(=C\c1ccc(Br)cc1)S(=O)(=O)c1ccccc1` -76% (active)

Assign growth to the following record: `CN(C)CCCn1c2c(c3ccc(N4CCNCC4)cc3c1=O)C(=O)c1ccccc1-2` -89.1% (active)

Give me measured growth, please, for this molecule: `COc1ccc(Oc2nc(Nc3ccc(N4CCOCC4)cc3)ncc2NC(=O)c2cccc(C(F)(F)F)c2)cc1` 70.2% (inactive)

Please report growth for the following molecule: `CN1CCN(Cc2ccc(NC(=O)c3nc4ccc5[nH]ncc5c4c4c3CCCC4)cc2C(F)(F)F)CC1` -90.4% (active)

---

- Test system: SK-MEL-2 melanoma
- experimental details: NCI-60 one-dose screen, 48 h
- test parameters: 10 µM unless noted
This is part of a sample that, as a whole, favours compounds with a hit. Of some 83,000 tested, about 20% had one in any assay. Activity calls are given as the source filed them. How the source made its calls: active means growth percent below 10; inactive means the rest.
Bench note: report the call from active, inactive

Just curious, what result did `N#Cc1c(-c2cccc(F)c2)cc(-c2cccnc2)[nH]c1=O` get here? inactive

Hello, I am checking results. What call was entered for `Cc1ccc(S(=O)(=O)OC[C@@]2(C)CC[C@]3(C)CC[C@]4(C)C(=C3C2)C=C[C@@H]2[C@@]3(C)CCCNC(C)(C)[C@@H]3CC[C@]24C)cc1` ? active

Give the logged outcome of this assay for the following compound: `Nc1c(C(=O)Nc2ccncc2)sc2nc3c(cc12)CCCCCCCC3` active

Hi team, can someone confirm the assay call for `COC(=O)c1c2c(c(C)[n+]([O-])c1C)C(=O)C(NCCN1CCOCC1)=CC2=O` ? inactive

Fill in: this test's call for Fc1ccc(NC(c2ccc(F)cc2)C2CCN(CCCCc3ccccc3)CC2)cc1 (stereo not drawn) is ___ inactive

Could you check what this test reported for `O=C(Nc1ccccc1C(=O)N/N=C(\c1ccccc1)c1ccccn1)c1ccccc1` ? inactive

Which outcome was assigned to CCOC(=O)C1=C(C)NC(=O)NC1c1c(Cl)n(-c2ccccc2)c2ccccc12 (stereo not drawn) in this test? inactive

Each compound tested received a call. Report the one for CC[C@]12CN3CCc4c([nH]c5ccccc45)[C@@](C(=O)OC)(c4cc5c(cc4OC)N(C)[C@H]4[C@@](O)(C(=O)OC)[C@H](OC(C)=O)[C@]6(CC)C=CCN7CC[C@]54[C@@H]76)CC(C3)[C@H]1O2 (stereo partly drawn) . inactive
